# experimental system: T1, PACAP-R3 (human, UniProt P41587 24-438)
# T1 sequence (looked up): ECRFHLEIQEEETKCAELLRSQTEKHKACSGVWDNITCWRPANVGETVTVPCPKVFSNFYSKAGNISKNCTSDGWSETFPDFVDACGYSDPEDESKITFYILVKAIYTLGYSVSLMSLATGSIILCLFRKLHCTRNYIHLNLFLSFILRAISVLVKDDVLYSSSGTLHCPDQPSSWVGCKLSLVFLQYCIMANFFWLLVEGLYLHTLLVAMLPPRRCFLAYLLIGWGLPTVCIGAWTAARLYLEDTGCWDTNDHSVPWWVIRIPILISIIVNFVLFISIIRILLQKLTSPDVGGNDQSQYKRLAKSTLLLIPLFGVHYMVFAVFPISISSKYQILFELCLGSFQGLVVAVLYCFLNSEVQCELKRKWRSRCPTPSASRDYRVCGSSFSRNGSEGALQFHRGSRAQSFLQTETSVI
# protocol details: cell-based or functional assay
No end group written: not given here.
quantity measured: R3 Selectivity (ratio)

binder	R3 Selectivity [ratio]
HSDGIFTDSKSRYRKQMAVKKYLAAVL-NH2 [PAC10]	4
HSDAVFTDNYTRLRKQMAKKKYLNSIPNRI [rR3P181]	50
HSDAVFTDNYTRLRKQMAAKKYLNSIRNRI [rR3P189]	30

(I) HSDGIFTDSYSEYRKQMAVKKYLAAVL-NH2 [PAC12]
(II) HSDAVFTDNYTRLRKQVAAKKYLQSIKNKRYSWCEPGWCR [R3P172]
Prompt: Lowest R3 Selectivity? choose I or II Field: selected label. Fill in the label of the entry you choose.
Response: II
(II: 29 ratio, I: 50 ratio)

(a) HSDAVFTDNYTRLRKQMAAKKYLNSIKNKT [R3P168]
(b) HSDAVFTDNYTRLRKQMAAKKYLNSIKNRI [rR3P174]
(c) HSDGIFTDSYKRYRKQMAVKKYLAAVL-NH2 [PAC11]
Prompt: Highest R3 Selectivity first, then in falling order down to the smallest. Put the labels in the requested order and list them out.
Response: a, b, c

(I) HSDAVFTDNYTRLRKQMARKKYLNSIPNRI [rR3P182]
(II) HSDGIFTDSYSRYRKQMAVKEYLAAVL-NH2 [PAC21]
Prompt: Parameter check: reported R3 Selectivity is higher for which label, I or II ? Pick one and reply with its label.
Response: I
